# Test system: DU-145 prostate
# experimentNotes: NCI-60 one-dose screen, 48 h (100 = growth as untreated, 0 = no growth, -100 = all killed)
# measurementContext: 10 µM unless noted
The panel holds about 83,000 compounds, 20% with a hit somewhere; the sample as a whole holds those more often.
propertyMeasured: growth (%)

> print(dat)
                                   molecule     targetentity  quantitativereadout
1  Cc1ccc2c(c1)C(C)Cc1c(Cl)ncnc1N2C (stereo unspecified)  DU-145 prostate                 79.8
2  O=C(Nc1cc(-c2cccnc2)nc(NCCCN2CCOCC2)n1)c1cc(Br)cc(C(F)(F)F)c1  DU-145 prostate                 82.6
3  O=c1[nH]cnc2c1ccn2C1OC(CO)C(O)C1O (stereo unspecified)  DU-145 prostate                 18.4
4                           c1coc2occoc=2o1  DU-145 prostate                  111
5                         CC(C)CCNCC(C)(C)O  DU-145 prostate                  118
6  CCN=C1C=CC(=C(c2ccc(N(CC)CC)cc2)c2ccc(N(CC)CC)cc2)c2ccccc21  DU-145 prostate                -96.5
